Measured TGI of individual entries
System: SR leukemia
Assay: NCI tumour cell line growth inhibition, 48 h
Where a SMILES comes first, the peptide text is derived from it. [ ]: non-standard residue; d: D form. The star is where a group is joined. Octanoyl = CCCCCCCC(=O)*; Aib = CC(C)(N)C(=O)O; tBu = CC(C)(C)*

{"COMPOUND": "CC12CCC[C@@](C)(C(=O)OC3OC(CO)C(O)C(O)C3O)[C@H]1CCC13CC4CC(OC4(CO)[C@H]1O)[C@@H]23 (stereo partly drawn)", "RESULT": "> 100 µM"}
{"COMPOUND": "ClC1=C(Cc2ccccc2)Cc2ccc3c(c21)CCC3", "RESULT": "36.9 µM"}
{"COMPOUND": "Cc1cc(C)c2c(=O)n(CN3CCC(O)(c4ccccc4)CC3)sc2n1", "RESULT": "82.8 µM"}
{"COMPOUND": "CCCCCCCC(=O)NC(C)(C)C(=O)NC(COC(C)(C)C)C(=O)NC(CC(C)C)C(=O)NC(C)(C)C(=O)NC(COC(C)(C)C)C(=O)NC(COC(C)(C)C)C(=O)NC(CC(C)C)C(=O)NC(C)(C)C(=O)NC(COC(C)(C)C)C(=O)NC(C(=O)NC(CC(C)C)C(=O)OC)C(C)CC (stereo not drawn) (Octanoyl-[Aib]S(tBu)L[Aib]S(tBu)S(tBu)L[Aib]S(tBu)IL-OMe; configuration not given here)", "RESULT": "17.9 µM"}
{"COMPOUND": "O=c1ccn2n1CCCCC2", "RESULT": "> 100 µM"}

Entry under test: `CCCCCCCC/C=C\CCCCCCCC(=O)NCCN(CCN)C(=O)CCCCCCC/C=C\CCCCCCCC` . Its TGI was > 100 µM

Entry under test: `c1ccc2c(c1)Nc1nc3nonc3nc1N2` . Its TGI was > 100 µM

Entry under test: `O=C(CCc1cccc(O)c1)NCCc1ccc(O)cc1` . Its TGI was > 100 µM

* * *

System: OVCAR-3 ovarian
Test: NCI tumour cell line growth inhibition, 48 h
Measured TGI of individual entries
// return numeric value only (unit: µM, not printed)

{"COMPOUND STRUCTURE": "CCCCCCCC[N+](C)(CCCCCCCC)CCCCCCCC", "MEASURED NUMBER": 0.792}

Entry under test: `CC(C)(C)c1ccc(C(O)c2ccc(C(C)(C)C)cc2)cc1` . Its TGI was 27.6

Entry under test: `COc1ccc(/C(C)=N/OC(=O)c2c(-c3ccccc3Cl)noc2C)cc1CN1CCOCC1` . Its TGI was 68.4

* * *

System: A498 renal
Experiment: NCI tumour cell line growth inhibition, 48 h; in the data active means GI50 below about 0.43 µM; inactive means the rest
The reply should name one outcome from active, inactive

{"MOLECULE": "COc1ccc(C2=NN(C(C)=O)C(c3cn(-c4ccccc4)nc3-c3ccc(Cl)cc3)C2)cc1 (configuration not stated)", "TARGET SYSTEM": "A498 renal", "LABEL CLASS": "inactive"}
{"MOLECULE": "COC(=O)C1=C(C(=O)OC)C23C=C(C)C1C2=C(C)C1(CC1)[C@@](C)(O)C3=O (some centres not stated)", "TARGET SYSTEM": "A498 renal", "LABEL CLASS": "active"}
{"MOLECULE": "COc1ccc2c(c1)CCC1C2CC[C@]2(C)/C(=N/OC(=O)Cc3ccccc3)CCC12 (some centres not stated)", "TARGET SYSTEM": "A498 renal", "LABEL CLASS": "inactive"}
{"MOLECULE": "Nc1c(C(=O)Nc2ccccc2Cl)sc2nc3c(cc12)CCCCCC3", "TARGET SYSTEM": "A498 renal", "LABEL CLASS": "inactive"}
{"MOLECULE": "CO[C@@H]1[C@H](OC(=O)NC(=O)CCl)CC[C@]2(CO2)[C@H]1[C@@]1(C)O[C@@H]1CC=C(C)C", "TARGET SYSTEM": "A498 renal", "LABEL CLASS": "inactive"}
{"MOLECULE": "CCOC(=O)c1sc(=S)c2c(C(=O)OCC)c(C(=O)OCC)sc2c1C(=O)OCC", "TARGET SYSTEM": "A498 renal", "LABEL CLASS": "inactive"}

Read the next record carefully.
Ask | Field: outcome | Entry: `CC(=O)N=c1ccc2nc3c(cc(N)c4ccccc43)oc-2c1`
Reply | inactive
